Reported apparent KD of K4 kissing-loop reporter values are given for each entry in this list.
System: K4 kissing-loop RNA reporter;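 further: bound reporter read as fluorescence of individual clusters on recovered sequencing chips by microscopy, with normalized cluster intensities fitted with a binding model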
Assay: apparent KD of K4 kissing-loop reporter; higher = weaker reporter binding
Details: Eterna round: R107; input ligand: none
Just the number in µM, nothing appended.

Observed apparent KD of K4 kissing-loop reporter on K4 kissing-loop RNA reporter for UGUACCGAGUCAGGAUAUAGCGUCGAAAGACGAAUCCUAGUGAUGUUAGGGAUCUGCGAAAGCAGUCUAGAAGGGACUUGGUACU [FmnBS 26 A19+U68] , please.
0.295

Observed apparent KD of K4 kissing-loop reporter on K4 kissing-loop RNA reporter for AUUUAAUUAACUGAUACCAGACUUAAUGUUUUGUAUAUUACUAGUGAUGUUAGUGAUUCUGUCCCUUGGCAGCAGUAUCUACUUA [JR_ExcTheophyB_Sub014] , please.
0.152

Observed apparent KD of K4 kissing-loop reporter on K4 kissing-loop RNA reporter for AGGAUGUAGUGAUGUUAUAUAAGAAGUAAACGAGGACCGGUACGGCCGCCACUCGAAGCGGCUACUAGCGCGUUGCGAGGUGUGC [ExTryptoA.Ce] , please.
0.581

Observed apparent KD of K4 kissing-loop reporter on K4 kissing-loop RNA reporter for UUCUACGUGCAAGGAUAUCCAUACGCUGCUAAGCGGGUAGCGAUAUAUGGAGUGAUGUUCCAUGUAGGAGAAGGUGCACUGUCCU [Rieser] , please.
0.348

Observed apparent KD of K4 kissing-loop reporter on K4 kissing-loop RNA reporter for GGAUAGGACAGAGGAUAUGGUAGCUAGGCAAGACAAAAGUCUUGUCUAGCAAUGAGGAGUGAUGUUCCAGAAGGCUGUCCUAUCG [FmnBX 4 - #SwitchBubble #StaticStem] , please.
0.442

New cases:
Observed apparent KD of K4 kissing-loop reporter on K4 kissing-loop RNA reporter for CCUAUCUGUUACGAUACCAGUCAAUGAUAUUUUAUCAAUGCCCUCACCGAGUGAUGUUCGGACCCUUGGCAGCGUCUGGGAUAGG [tyygpimullin] , please.
0.171

Observed apparent KD of K4 kissing-loop reporter on K4 kissing-loop RNA reporter for GGCACGUUCCCUUGAUCAGUGAUGUUGUUUCGAGGACCGGUACGGCCGCCACUCGCUCGGCGUUCGCCCAGGCCCGGAAAACUGC [theeternabot_exclusion_KL_Trp_A_13] , please.
0.224

Observed apparent KD of K4 kissing-loop reporter on K4 kissing-loop RNA reporter for GAGAGCCCUGGAGGAUAUGAGUCUAGUGAUGUUAGGCGGUCCAUGCGCGUGGCGCGUUAUGCCCUUUUAGAAGGCCAGGGCUCUC [#2 Exclusion - FMN B Attempt #18 (HarryS)] , please.
0.0885

Observed apparent KD of K4 kissing-loop reporter on K4 kissing-loop RNA reporter for CACGAUGAAUUCUCUAGGAGUGAUGUUUUUCGAGGACCGGUACGGCCGCCACUCGGACCAGGAACGUGGGAGCGGCGAAAAGACU [jbmullin] , please.
0.93

Observed apparent KD of K4 kissing-loop reporter on K4 kissing-loop RNA reporter for AAAUAAAUCACGGCCGCCACUGCUAGAGUGAUGUUCUAUUAAUAAUUUCUAAAUUAUAUAAUACUCAGGACCGGGUGAUUUUUAA [JR_SSTryptoB_Sub020] , please.
0.355

Observed apparent KD of K4 kissing-loop reporter on K4 kissing-loop RNA reporter for CCAUUCAGUUACGAUACCAGUCUAAUAUAUUUGAUCAAAACCCUCGCCGAGUGAUGUUCGGACCCUUGGCAGCGUCUGGGACAGG [xxcetmullin] , please.
0.421

Observed apparent KD of K4 kissing-loop reporter on K4 kissing-loop RNA reporter for UUAUUAAUCGCAGAUACCAGUCCAGAAUGAAUACUAUAGUGAUGUUAUAAUAAAGGGAAGGACCCUUGGCAGCUGUAAUAUAUUU [AstrosSsTheB#3] , please.
0.401

Each recorded value in this set is attributed to the supplement of paper PMC9170038.
